- method: Quantitative highthroughput screen to assess conditional lethalithy of P12 Ichikawa cells grown in Human Plasma-Like Medium with dialyzed fetal bovine serum (HPLM+ds) (AID 1963879); note: nearly all actives have a fitted effect of over 35% in size; note: potency is the fitted concentration of half-maximal effect
- assayConditions: ATP luminescence, 48 h; viability; series mostly up to 45.8 µM
- Protocol: Assay Provider: Jason Cantor Ph.D. Department of Biochemistry University of Wisconsin-Madison, Madison, WI, USA Chemical screening studies have identified drug sensitivities across hundreds of cancer cell lines but most putative therapeutics fail to translate. […] Sets of conditional anticancer compounds spanned phases of clinical development and included non-oncology drugs were assessed. […] 6; Detection; Luminescence, Viewlux PerkinElmer. […]
Records with an inconclusive call do not appear. Activity calls are given as the source filed them. Calls come from the whole dose curve; as a rule, active = well fitted cell-killing curve with a large enough effect; inconclusive = small, poorly fitted or top-dose-only effect; inactive = flat fitted curve, though single readings scatter.
propertyMeasured: Potency

The examples below pair each entry with its known result.
C=C1C(=O)[C@@]23C(CC[C@@H]1[C@H]2O)[C@@]12CO[C@]3(O)[C@@H](O)[C@@H]1C(C)(C)CC[C@@H]2O (stereo partly drawn): 13.2 µM (active)
NS(=O)(=O)c1ccc(Nc2nc(OCC3CCCCC3)c3[nH]cnc3n2)cc1: 0.0469 µM (active)
CCN(CC)CCOc1ccc(Nc2ncc3cc(-c4c(Cl)cccc4Cl)c(=O)n(C)c3n2)cc1: 3.72 µM (active)
O=C(CCCCCCC(=O)Nc1ccc([C@H]2O[C@@H](CSc3nc(-c4ccccc4)c(-c4ccccc4)o3)C[C@@H](c3ccc(CO)cc3)O2)cc1)NO: 4.69 µM (active)
CCOC(=O)N1c2ccc(C(F)(F)F)cc2[C@@H](N(Cc2cc(C(F)(F)F)cc(C(F)(F)F)c2)C(=O)OC)C[C@H]1CC: inactive
Cc1cccc(N(C)C(=S)Oc2ccc3ccccc3c2)c1: inactive
CCOc1cc(C(C)(C)C)ccc1C1=N[C@@](C)(c2ccc(Cl)cc2)[C@@](C)(c2ccc(Cl)cc2)N1C(=O)N1CCN(CC(=O)N2CCOCC2)CC1: inactive

Query molecule follows.
[ask] Look up Potency of `COCCn1c2c([n+](Cc3cnccn3)c1C)C(=O)c1ccccc1C2=O` and report it.
[reply] 0.235 µM (active)

// provenance: PubChem BioAssay (NCATS)
